# System: K562
# ASSAY_REMARKS: Cytotoxicity against human K562 cells assessed as reduction in cell viability after 72 hrs by MTT assay
# Type: functional, cell-based
# MEASUREMENT_SETUP: K562, 72 h
pIC50: −log10 of the molar value.
MEASURED_PROPERTY: pIC50

q: Write down measured pIC50 (K562) for this molecule. NN1C(=O)/C(=C/c2c[nH]c3ccc(Br)cc23)SC1=S
a: < 4.30

q: Report value: pIC50, system: K562, molecule: NN1C(=O)/C(=C/c2c[nH]c3ccccc23)SC1=S
a: 4.65

q: # return pIC50 for O=C1NC(=S)S/C1=C\c1c[nH]c2ccc(Br)cc12 , test system: K562
a: < 4.30

q: For K562, give pIC50 of the listed molecule: O=C1NC(=S)S/C1=C\c1c[nH]c2ccccc12
a: < 4.30

q: Return reported pIC50 for target or system K562, item O=C1NC(=O)/C(=C/c2c[nH]c3ccc(Br)cc23)S1 .
a: < 4.30

q: Give measured pIC50 for COc1cccc2c1C(=O)c1c(O)c3c(c(O)c1C2=O)C[C@@](O)(C(=O)CO)C[C@@H]3O[C@H]1C[C@H](N)[C@H](O)[C@H](C)O1 (K562).
a: 5.20

q: Print K562 pIC50 for O=C1NC(=O)/C(=C/c2c[nH]c3ccccc23)S1 .
a: < 4.30

q: Answer briefly: pIC50 recorded on K562 for O=C1NC(=S)N/C1=C\c1c[nH]c2ccccc12
a: < 4.30
